target: Vascular endothelial growth factor receptor 2 (Homo sapiens)
Sequence (P35968 whole entry): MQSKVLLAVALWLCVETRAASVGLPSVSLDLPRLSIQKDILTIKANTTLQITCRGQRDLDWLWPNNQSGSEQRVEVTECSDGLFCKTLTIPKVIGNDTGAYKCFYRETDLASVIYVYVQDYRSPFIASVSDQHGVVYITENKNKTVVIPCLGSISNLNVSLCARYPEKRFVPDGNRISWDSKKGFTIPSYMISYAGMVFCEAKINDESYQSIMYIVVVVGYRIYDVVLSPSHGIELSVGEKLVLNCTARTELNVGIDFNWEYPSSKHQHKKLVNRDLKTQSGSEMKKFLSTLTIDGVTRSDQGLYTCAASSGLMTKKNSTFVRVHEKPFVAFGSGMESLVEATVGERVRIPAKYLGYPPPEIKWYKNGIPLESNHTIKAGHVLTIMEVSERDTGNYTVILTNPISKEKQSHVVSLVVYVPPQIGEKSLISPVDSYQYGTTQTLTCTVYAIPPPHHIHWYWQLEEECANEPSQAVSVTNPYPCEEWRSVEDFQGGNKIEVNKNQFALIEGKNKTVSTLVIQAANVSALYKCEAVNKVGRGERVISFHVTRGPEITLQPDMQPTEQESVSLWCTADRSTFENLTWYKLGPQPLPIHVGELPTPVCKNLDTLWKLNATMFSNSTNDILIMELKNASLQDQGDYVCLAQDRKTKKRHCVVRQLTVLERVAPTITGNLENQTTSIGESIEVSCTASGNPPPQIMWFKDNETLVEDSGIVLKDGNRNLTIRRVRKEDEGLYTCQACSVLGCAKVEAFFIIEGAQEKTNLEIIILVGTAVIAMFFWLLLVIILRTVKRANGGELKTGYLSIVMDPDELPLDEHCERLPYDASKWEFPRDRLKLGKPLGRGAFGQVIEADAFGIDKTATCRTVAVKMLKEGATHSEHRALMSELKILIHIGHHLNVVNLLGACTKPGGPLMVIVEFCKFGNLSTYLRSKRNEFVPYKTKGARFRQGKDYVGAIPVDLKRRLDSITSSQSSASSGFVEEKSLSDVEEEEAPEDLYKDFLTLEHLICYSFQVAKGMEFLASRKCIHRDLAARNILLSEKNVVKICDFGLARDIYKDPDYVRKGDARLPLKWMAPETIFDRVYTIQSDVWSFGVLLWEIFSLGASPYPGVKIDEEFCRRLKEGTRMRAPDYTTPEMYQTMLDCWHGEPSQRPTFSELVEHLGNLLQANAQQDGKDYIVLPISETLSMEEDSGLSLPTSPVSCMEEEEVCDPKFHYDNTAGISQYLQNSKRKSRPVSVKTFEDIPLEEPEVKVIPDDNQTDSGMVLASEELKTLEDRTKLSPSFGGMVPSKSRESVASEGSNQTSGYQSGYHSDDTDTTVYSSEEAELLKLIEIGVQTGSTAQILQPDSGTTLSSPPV
pIC50: −log10 of the molar value.
Below: a set of entries, each annotated with reported pIC50.

SMILES_STRUCTURE: O=C(NC(=S)Nc1ccc(O)c(-c2nc3ccccc3s2)c1)c1ccc([N+](=O)[O-])cc1
SUBJECT_OF_TEST: Vascular endothelial growth factor receptor 2 (Homo sapiens)
RESULT_QUALIFIER: =
pIC50: 5.52
//
SMILES_STRUCTURE: COc1nc(Nc2ccc(-c3nc4ccccc4s3)c(OC)c2)c2cc[nH]c2n1
SUBJECT_OF_TEST: Vascular endothelial growth factor receptor 2 (Homo sapiens)
RESULT_QUALIFIER: =
pIC50: 6.02
//
SMILES_STRUCTURE: Cc1cc(Nc2ccnc(Nc3ccc(-c4nc5ccccc5s4)cc3)n2)n[nH]1
SUBJECT_OF_TEST: Vascular endothelial growth factor receptor 2 (Homo sapiens)
RESULT_QUALIFIER: <
pIC50: 5.00
//
SMILES_STRUCTURE: CN(C)c1ccnc(Nc2ccc(-c3nc4ccccc4s3)cc2)n1
SUBJECT_OF_TEST: Vascular endothelial growth factor receptor 2 (Homo sapiens)
RESULT_QUALIFIER: <
pIC50: 5.00
//
SMILES_STRUCTURE: COc1cc2ncnc(Nc3ccc(-c4nc5ccccc5s4)cc3)c2cc1OC
SUBJECT_OF_TEST: Vascular endothelial growth factor receptor 2 (Homo sapiens)
RESULT_QUALIFIER: =
pIC50: 5.17

* * *

Each entry below carries its reported IC50.
target: Aurora kinase B (Homo sapiens, UniProt Q96GD4)
Sequence (Q96GD4 whole entry): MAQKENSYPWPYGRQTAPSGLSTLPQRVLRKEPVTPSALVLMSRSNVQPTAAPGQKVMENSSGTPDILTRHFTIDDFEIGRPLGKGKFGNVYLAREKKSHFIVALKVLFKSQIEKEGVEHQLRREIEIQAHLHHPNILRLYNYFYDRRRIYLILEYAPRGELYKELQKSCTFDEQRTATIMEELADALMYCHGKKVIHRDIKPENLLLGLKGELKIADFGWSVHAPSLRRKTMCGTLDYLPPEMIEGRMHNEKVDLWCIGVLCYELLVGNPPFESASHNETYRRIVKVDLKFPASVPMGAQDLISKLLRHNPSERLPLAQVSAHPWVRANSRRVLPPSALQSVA
OUTCOME_MEASURE: IC50

SMILES_STRUCTURE: COc1cc2ncnc(Nc3ccc(-c4nc5ccccc5s4)cc3)c2cc1OC
SUBJECT_OF_TEST: Aurora kinase B (Homo sapiens, UniProt Q96GD4)
RECORDED_VALUE: 0.135 µM
//
SMILES_STRUCTURE: Fc1cc(-c2nc3ccccc3s2)ccc1Nc1ncnc2cc(Cl)ccc12
SUBJECT_OF_TEST: Aurora kinase B (Homo sapiens, UniProt Q96GD4)
RECORDED_VALUE: 0.51 µM
//
SMILES_STRUCTURE: COc1cc(Nc2ncnc3[nH]ccc23)ccc1-c1nc2ccccc2s1
SUBJECT_OF_TEST: Aurora kinase B (Homo sapiens, UniProt Q96GD4)
RECORDED_VALUE: > 10 µM
//
SMILES_STRUCTURE: COc1cc2nc(Nc3cc(C)[nH]n3)nc(Nc3cccc(-c4nc5ccccc5s4)c3)c2cc1OC
SUBJECT_OF_TEST: Aurora kinase B (Homo sapiens, UniProt Q96GD4)
RECORDED_VALUE: > 10 µM
//
SMILES_STRUCTURE: c1ccc2sc(-c3ccc(Nc4ncnc5ccsc45)cc3)nc2c1
SUBJECT_OF_TEST: Aurora kinase B (Homo sapiens, UniProt Q96GD4)
RECORDED_VALUE: 0.72 µM
//
SMILES_STRUCTURE: COc1cc2ncnc(Nc3ccc(-c4nc5ccccc5s4)c(OC)c3)c2cc1OC
SUBJECT_OF_TEST: Aurora kinase B (Homo sapiens, UniProt Q96GD4)
RECORDED_VALUE: > 10 µM
//
SMILES_STRUCTURE: COc1cc(Nc2ncnc3ccsc23)ccc1-c1nc2ccccc2s1
SUBJECT_OF_TEST: Aurora kinase B (Homo sapiens, UniProt Q96GD4)
RECORDED_VALUE: > 10 µM
//
SMILES_STRUCTURE: Cc1cc(Nc2ccnc(Nc3ccc(-c4nc5ccccc5s4)cc3)n2)n[nH]1
SUBJECT_OF_TEST: Aurora kinase B (Homo sapiens, UniProt Q96GD4)
RECORDED_VALUE: 7 µM
//
SMILES_STRUCTURE: CN(C)c1ccnc(Nc2ccc(-c3nc4ccccc4s3)cc2)n1
SUBJECT_OF_TEST: Aurora kinase B (Homo sapiens, UniProt Q96GD4)
RECORDED_VALUE: > 10 µM
//
SMILES_STRUCTURE: COc1cc(Nc2ncnc3nc[nH]c23)ccc1-c1nc2ccccc2s1
SUBJECT_OF_TEST: Aurora kinase B (Homo sapiens, UniProt Q96GD4)
RECORDED_VALUE: > 10 µM
//
SMILES_STRUCTURE: CNc1nc(Nc2ccc(-c3nc4ccccc4s3)cc2)c2cc(OC)c(OC)cc2n1
SUBJECT_OF_TEST: Aurora kinase B (Homo sapiens, UniProt Q96GD4)
RECORDED_VALUE: > 10 µM
//
SMILES_STRUCTURE: CN1CCN(c2ccnc(Nc3ccc(-c4nc5ccccc5s4)cc3)n2)CC1
SUBJECT_OF_TEST: Aurora kinase B (Homo sapiens, UniProt Q96GD4)
RECORDED_VALUE: > 10 µM
